Tested on: A549 cells
Assay: Cell viability by MTT method in A549 cells
Format: cell-based
Parameters: concentration or dose not given beside the values
Conditions: 72 hours treatment
Recorded Cell Viability (% inhibition) (A549), one value per entry.

{"Smiles entry": "COc1ccc(-c2cc(NC(=O)[C@H](CC(C)C)NS(=O)(=O)c3ccc(C)cc3)on2)cc1", "Tgt": "A549 cells", "Cell Viability (% inhibition) (A549)": "98.73 ± 0.92%"}
{"Smiles entry": "Cc1ccc(S(=O)(=O)N[C@@H](Cc2c[nH]c3ccccc23)C(=O)NC23CC4CC(CC(C4)C2)C3)cc1", "Tgt": "A549 cells", "Cell Viability (% inhibition) (A549)": "78.9 ± 2.62%"}
{"Smiles entry": "Cc1ccc(S(=O)(=O)N[C@@H](CC(C)C)C(=O)Nc2nc(-c3ccc(O)cc3)cs2)cc1", "Tgt": "A549 cells", "Cell Viability (% inhibition) (A549)": "93.07 ± 5.89%"}
{"Smiles entry": "Cc1ccc(S(=O)(=O)N[C@@H](CCC(=O)N2CCOCC2)C(=O)Nc2ccc(N3CCOCC3)cc2)cc1", "Tgt": "A549 cells", "Cell Viability (% inhibition) (A549)": "0.1 ± 5.51%"}
{"Smiles entry": "Cc1ccc(S(=O)(=O)N[C@@H](CC(C)C)C(=O)Nc2cc(N3CCC(C)CC3)ncn2)cc1", "Tgt": "A549 cells", "Cell Viability (% inhibition) (A549)": "72.7%"}
{"Smiles entry": "CC(C)(C)c1ccc(S(=O)(=O)N[C@@H](Cc2c[nH]c3ccccc23)C(=O)Nc2ccc(N3CCOCC3)cc2)cc1", "Tgt": "A549 cells", "Cell Viability (% inhibition) (A549)": "17.13 ± 5.35%"}
{"Smiles entry": "CC(C)C[C@H](NS(=O)(=O)c1ccc(-c2ccccc2)cc1)C(=O)Nc1ccc(N2CCOCC2)cc1", "Tgt": "A549 cells", "Cell Viability (% inhibition) (A549)": "26.48 ± 3.66%"}

====

System: A549 cells
Assay: Cell viability by MTT method in A549 cells
Type: cell-based
Design: concentration or dose not given beside the values
Conditions: 72 hours treatment
Recorded Cell Viability (% inhibition) (A549), one value per entry.
Assay metric: Cell Viability (% inhibition) (A549) (%)

{"Compound": "Cc1ccc(S(=O)(=O)N[C@@H](Cc2cn(C=O)c3ccccc23)C(=O)Nc2ccc(N3CCOCC3)cc2)cc1", "Readout units": "%", "Reading": 49.76}
{"Compound": "Cc1ccc(S(=O)(=O)N[C@@H](Cc2c[nH]c3ccccc23)C(=O)NCCc2ccc(C(=O)O)cc2)cc1", "Readout units": "%", "Reading": "−11.09"}
{"Compound": "Cc1ccc(C(=O)N[C@@H](Cc2c[nH]c3ccccc23)C(=O)OCc2ccccc2)cc1 [Compound 128]", "Readout units": "%", "Reading": 63.08}
{"Compound": "CC(C)C[C@H](NS(=O)(=O)c1ccc(OCc2ccccc2)cc1)C(=O)N1CCOCCOCCOCC1", "Readout units": "%", "Reading": 38.82}
{"Compound": "COc1ccc(N2CCN(C(=O)[C@H](Cc3c[nH]c4ccccc34)NS(=O)(=O)c3ccc(Br)cc3)CC2)cc1", "Readout units": "%", "Reading": 78.44}
{"Compound": "Cc1ccc(S(=O)(=O)N[C@@H](CCC(=O)Nc2ccc([N+](=O)[O-])cc2)C(=O)Nc2ccc(N3CCOCC3)cc2)cc1", "Readout units": "%", "Reading": 85.33}
{"Compound": "COc1ccc(-c2csc(NC(=O)[C@H](CC(C)C)NS(=O)(=O)c3ccc(C)cc3)n2)cc1OC", "Readout units": "%", "Reading": 87.36}
